System: Plasmodium berghei
EXPERIMENT_SUMMARY: Screen against P. berghei liver stage (PbLuc), transformed with Luciferase, at 10uM
Assay type: functional, HepG2
EXPERIMENTAL_SETUP: tested at 10 uM
In all, about 69,000 compounds went through this assay and about 8,600 (12%) showed an effect of 50% or more. The entries come from a sample that favours strong results as a whole.
Please go through the items and note down their INHIBITION.
One number for each entry, in %.

The examples below pair each entry with its known result.
COMPOUND	INHIBITION / %
Cn1c(NCC(O)c2ccc(F)c(F)c2)c(C#N)c(=O)n(C)c1=O (configuration not stated)	-52.5
CCn1cc(NC(=O)NCC(O)c2ccccc2)cn1 (configuration not stated)	-30.4
CN(C)CCNC(=O)c1ccccc1NC(=O)c1cc(Cl)ccc1Cl	44.4
O=C(N1CCOCC1)[C@@]12CCO[C@@H]1CCN(C1CCOCC1)C2	38.5
CC(C)(C)n1ncc(NCC(O)c2ccc(F)c(F)c2)c(Cl)c1=O (configuration not stated)	84.5
Cc1csc2c(=O)n(CCSc3cnn[nH]3)cnc12	18.5
CCN1CCN(c2ccc(CNC(=O)c3sccc3C)cn2)CC1	-23.8
C=C(C)CN1CCN(Cc2cnc(-c3ccccc3C)nc2)CC1	9.93

Quick request: INHIBITION for each listed item, please.
1. Cn1ccnc1CN1CCc2c(COCC3CC3)nn(C)c2C1
2. Cc1nc(C)n(CC2CN(CCOc3cccc(F)c3)CCO2)n1 (configuration not stated)
3. C[C@H]1CN(C(=O)c2cccc(F)c2Cl)CCN1S(C)(=O)=O
4. O=C(CN1CCCC1)Nc1c2c(cc3c1CCC3)CCC2

1: 38.5; 2: -21.7; 3: 61.1; 4: -3.47

* * *

System: Plasmodium berghei
EXPERIMENT_SUMMARY: Screen against P. berghei liver stage (PbLuc), transformed with Luciferase, at 10uM
Format: functional, HepG2
EXPERIMENTAL_SETUP: tested at 10 uM
In all, about 69,000 compounds went through this assay and about 8,600 (12%) showed an effect of 50% or more. The list comes from a sample in which strong results are over-represented; it also holds close analogues and randomly drawn compounds.
RECORDED_ENDPOINT: INHIBITION (%)
Answers are plain numbers, in %.

Solved entries (count: 2):
COMPOUND	RECORDED_ENDPOINT	RESULT_UNIT	TEST_VALUE
c1cc(CN2CCO[C@H]3[C@H](OCCN4CCCC4)CC[C@@H]32)ccn1	INHIBITION	%	38.2
Cc1ccc(CN2Cc3ccnn3CC(C(=O)NCC3CC3)C2)o1 (centres undefined)	INHIBITION	%	-31

Please give INHIBITION for each item listed below.
1. O=C1CC(c2ccc(CO)o2)c2cnn(Cc3ccco3)c2N1 (centres undefined)
2. CCOc1ccnc(N2CCCN(c3nc(CC)ns3)CC2)n1
3. N#Cc1ccc(CC(=O)N2CCC(Nc3cccnn3)CC2)cc1
4. CCn1ccnc1CN1CCN(Cc2cccnc2)CC1C (centres undefined)
5. Cc1oc(-c2nc(C#N)c(NCC(C)C)o2)cc1S(=O)(=O)N1CCCC1
6. CCC(C)CNC(=O)[C@@H]1CCCN1c1nccc(Nc2ccccc2)n1 (some centres undefined)
7. CC(C)C1CC(=O)Nc2c1cnn2Cc1ccco1 (centres undefined)

67.6
-12.5
-3.7
33.5
22.6
13.5
7.85

* * *

Give INHIBITION for every item shown.
System: Plasmodium berghei
EXPERIMENT_SUMMARY: Screen against P. berghei liver stage (PbLuc), transformed with Luciferase, at 10uM
Type: functional, HepG2
EXPERIMENTAL_SETUP: tested at 10 uM
Hit rate of the full screen: of about 69,000 compounds, about 8,600 (12%) showed an effect of 50% or more. Only a selection was taken, and strong results are over-represented in it overall.

Consider the worked cases shown below.
COMPOUND	RECORDED_ENDPOINT	TEST_VALUE
CN(c1ccc(C(=O)NCCCN2CCCC2)c(Cl)c1)S(C)(=O)=O	INHIBITION	40.9%
Cc1noc(C2(C)CCCN(C(=O)c3cnn(C)c3)C2)n1 (centres undefined)	INHIBITION	24.4%
CN(Cc1cnccn1)c1cncc(Br)c1	INHIBITION	45.9%

The record that follows has no INHIBITION shown yet.
Record `Cc1ccc(C(=O)NC2CCN(C)CC2)cc1N(C)S(C)(=O)=O` ; system Plasmodium berghei; INHIBITION = 34.2%

* * *

What INHIBITION was measured for each of the following?
Test system: Plasmodium berghei
EXPERIMENT_SUMMARY: Screen against P. berghei liver stage (PbLuc), transformed with Luciferase, at 10uM
Assay type: functional, HepG2
EXPERIMENTAL_SETUP: tested at 10 uM
The campaign covered roughly 69,000 compounds. About 8,600 (12%) showed an effect of 50% or more. This excerpt belongs to a sample that is enriched for strong results.
Give bare numbers, in %.

Worked cases, INHIBITION given:
COMPOUND	TARGET_ENTITY	INHIBITION (%)
O=C(c1ccc[nH]1)N1CCc2cc(S(=O)(=O)N3CCOCC3)ccc2C1	Plasmodium berghei	42.8
CCOCCNC(=O)c1cccnc1N1CCCC1c1ccccn1 (stereo not drawn)	Plasmodium berghei	-31

Here is another compound to look at.
Just so you know, measured INHIBITION for CCN1CCC2(CC1)CC(NC(=O)NC)c1cc(C)ccc12 (stereo not drawn) came out at -25

* * *

Test system: Plasmodium berghei
EXPERIMENT_SUMMARY: Screen against P. berghei liver stage (PbLuc), transformed with Luciferase, at 10uM
Type: functional, HepG2
EXPERIMENTAL_SETUP: tested at 10 uM
Out of some 69,000 compounds screened, about 8,600 (12%) showed an effect of 50% or more. The list comes from a sample in which strong results are over-represented; it also holds close analogues and randomly drawn compounds.
RECORDED_ENDPOINT: INHIBITION (%)
Numbers only, in %.

# count of solved cases: 4
COMPOUND	RESULT_UNIT	INHIBITION
CCc1noc(CCC(=O)N[C@@H]2CC[C@@H](n3ccnc3)[C@@H]2O)n1	%	8.72
COc1cccc(SCC(=O)N2CCC(N3CCCC(O)C3)CC2)c1 (stereo not given)	%	64.9
Cc1nccn1[C@@H]1CC[C@@H](NC(=O)CCCn2cccn2)[C@H]1O	%	4.13
Oc1nnc(-c2ccccc2)c2sc(N3CCCCC3)nc12	%	57

Below: the item to evaluate.
INHIBITION of `COCCn1c(=O)n(Cc2cccc(F)c2F)c2cc(C(=O)O)ccc21` , assay on Plasmodium berghei, is 55

* * *

Test system: Plasmodium berghei
EXPERIMENT_SUMMARY: Screen against P. berghei liver stage (PbLuc), transformed with Luciferase, at 10uM
Type: functional, HepG2
EXPERIMENTAL_SETUP: tested at 10 uM
Hit rate of the full screen: of about 69,000 compounds, about 8,600 (12%) showed an effect of 50% or more. The sample holds strong results, similar compounds and a random draw of the others, so the mix is not that of the screen.
Assignment: determine reported INHIBITION for the given compounds.
One number for each entry, in %.

Answered examples (4):
COMPOUND	RESULT_UNIT	INHIBITION
CCOC(=O)[C@]12CCCN(Cc3nccs3)C[C@H]1CN(CC(C)C)C2	%	-13
CCOC(=O)[C@]12CCCN(Cc3nccs3)C[C@H]1CN(C(C)=O)C2	%	-1.64
COCC1CN(Cc2cc(C)on2)Cc2cnn(C)c21 (configuration not stated)	%	-13.7
CCc1cc(CN(C)C(=O)c2cc(=O)[nH]c(=O)[nH]2)on1	%	-34.8

# per-item lookup of INHIBITION; items listed below
1. CCOC(=O)[C@]12CCCN(Cc3nccs3)C[C@H]1CN(CCN(C)C)C2
2. N#Cc1cccnc1Oc1cc(F)c(CN2CCCC2)c(Cl)c1
3. Fc1cccnc1Oc1cc(F)c(CN2CCCC2)c(Cl)c1

1. 15.1
2. 11.4
3. 60.9

* * *

Tested on: Plasmodium berghei
EXPERIMENT_SUMMARY: Screen against P. berghei liver stage (PbLuc), transformed with Luciferase, at 10uM
Type: functional, HepG2
EXPERIMENTAL_SETUP: tested at 10 uM
Screen size: about 69,000 compounds; about 8,600 (12%) showed an effect of 50% or more. The sample holds strong results, similar compounds and a random draw of the others, so the mix is not that of the screen.
Classification field: enter true (1) for INHIBITION values not below 40%, false (0) for values below it.

Worked examples follow.
COMPOUND	CLASS_NAME
Nc1nc2c(c(NC(=O)Nc3ccc(Cl)c(Cl)c3)n1)CCCC2	false (0)
O=C(c1n[nH]cc1Cl)N1CCCC(n2nnc3cc(F)ccc32)C1 (stereo unspecified)	false (0)
CN(CC(F)(F)F)C(=O)Cn1cc(NC(=O)C(C)(C)C)cn1	false (0)
Cc1nc(CN(C)C2CCN(Cc3cccc4cccnc34)C2)no1 (stereo unspecified)	false (0)
O=C(Cn1ccc2ccc(Br)cc21)NC[C@@H]1CCCN2CCCC[C@H]12	false (0)

Has COCCN1CCC(N(Cc2noc(C3CC3)n2)C(C)=O)C1 (stereo unspecified) a recorded INHIBITION greater than or equal to 40%?
false (0)

Does the compound `O=C(Cn1ccc2ccc(F)cc21)NC[C@@H]1CCCN2CCCC[C@H]12` have recorded INHIBITION that is 40% or more?
true (1)

Reported INHIBITION reaches at least 40% for CCCc1nc(C(=O)NCCN2CCC(c3ccccc3C)C2)cs1 (stereo unspecified) ?
true (1)

Confirm if INHIBITION reported for the compound Cc1ccc(-c2nc(CN3CCCCC3Cn3cncn3)no2)cc1 (stereo unspecified) is 40% or above.
false (0)

Check this compound for INHIBITION at or above 40%: `CC(C)n1nc(CN2CCCC2=O)c2c1CN(C(=O)c1ccno1)C2`
false (0)

Threshold query (INHIBITION >= 40%) on O=C(c1cnccn1)N1CCCC2(CCCN2Cc2cccnc2)C1 (stereo unspecified)
false (0)

Exam item: decide whether the reported INHIBITION for `CC(=O)N1CCC2(CC1)CN(C)C(=O)C[C@H]2C(F)(F)F` is at least 40%.
false (0)

Attribution: ChEMBL document CHEMBL4513216
